System: N. gonorrhoeae 35/02
Assay: MIC, N. gonorrhoeae drug-resistant strain
Format: cell-based
Conditions: Neisseria gonorrhoeae; drug-resistant strain 35/02
QUANTITY: MIC

See these solved cases before continuing.
- MOLECULE: "CC(C)(N)[C@H](NC(=O)c1ccc(C#CC#Cc2ccc(N)cc2)cc1)C(=O)NO [CPD-040]"
  MIC: "5 to 7 mg/L"
- MOLECULE: "C[C@@](O)(C(F)F)[C@H](NC(=O)c1ccc(C#CC#Cc2ccccc2N)cc1)C(=O)NO [CPD-067]"
  MIC: "0.1 to 1 mg/L"
- MOLECULE: "CC(C)(O)[C@H](NC(=O)c1ccc(C#CC#Cc2ccccc2N)cc1)C(=O)NO [CPD-066]"
  MIC: "2 to 4 mg/L"
- MOLECULE: "CC(C)(N)[C@H](NC(=O)c1ccc(C#CC#Cc2ccccc2N)cc1)C(=O)NO [CPD-065]"
  MIC: "2 to 4 mg/L"

Could you now consider this next molecule?
Note to self: MIC recorded for C[C@@H](O)[C@H](NC(=O)c1ccc(C#Cc2ccc(CN3CCOCC3)cc2)cc1)C(=O)NO [drawing 321] was 8 mg/L

----------
System: P. aeruginosa (PAO1)
Experiment: MIC, P. aeruginosa
Assay type: cell-based
Conditions: P. aeruginosa PAO1; 22 hours at 37° C., MTT
QUANTITY: MIC P. aeruginosa (PAO1)

Some molecules with recorded MIC P. aeruginosa (PAO1):
- MOLECULE: "Nc1ccc(C#CC#Cc2ccc(C(=O)N3CCC[C@H]3C(=O)NO)cc2)cc1 [CPD-031]"
  MIC P. aeruginosa (PAO1): "E (>100 μg/mL)"
- MOLECULE: "Nc1ccc(C#CC#Cc2ccc(C(=O)N[C@@H](Cc3c[nH]c4ccccc34)C(=O)NO)cc2)cc1 [CPD-029]"
  MIC P. aeruginosa (PAO1): "E (>100 μg/mL)"
- MOLECULE: "C[C@@H](O)[C@H](NS(=O)(=O)c1ccc(C#CC#Cc2ccc(N)cc2)cc1)C(=O)NO [CPD-039]"
  MIC P. aeruginosa (PAO1): "D (51-100 μg/mL)"
- MOLECULE: "Nc1ccc(C#CC#Cc2ccc(C(=O)N[C@@H](CO)C(=O)NO)cc2)cc1 [CPD-027]"
  MIC P. aeruginosa (PAO1): "B (1-10 μg/mL)"
- MOLECULE: "Nc1ccc(C#CC#Cc2ccc(C(=O)N[C@@H](Cc3ccccc3)C(=O)NO)cc2)cc1 [CPD-025]"
  MIC P. aeruginosa (PAO1): "D (51-100 μg/mL)"

The molecule listed as CC(C)C[C@H](NC(=O)c1ccc(C#CC#Cc2ccc(N)cc2)cc1)C(=O)NO [CPD-026] shows MIC P. aeruginosa (PAO1) equal to E (>100 μg/mL)

For reference, reported MIC P. aeruginosa (PAO1) for C[C@@H](O)[C@H](NC(=O)c1ccc(C#CC#Cc2cnc(N)nc2)cc1)C(=O)NO [CPD-036] stands at A (<1 μg/mL)

Memo: CC(C)[C@H](NC(=O)c1ccc(C#CC#Cc2ccc(N)cc2)cc1)C(=O)NO [CPD-022] , reported MIC P. aeruginosa (PAO1): B (1-10 μg/mL)

Short answer for NCCCC[C@H](NC(=O)c1ccc(C#CC#Cc2ccc(N)cc2)cc1)C(=O)NO [CPD-032] : MIC P. aeruginosa (PAO1) was C (11-50 μg/mL)

Given item Nc1ccc(C#CC#Cc2ccc(C(=O)NCC(=O)NO)cc2)cc1 [CPD-024] , the value recorded as its MIC P. aeruginosa (PAO1) is D (51-100 μg/mL)

The reported value for NC[C@H](NC(=O)c1ccc(C#CC#Cc2ccc(N)cc2)cc1)C(=O)NO [CPD-021] in terms of MIC P. aeruginosa (PAO1) is B (1-10 μg/mL)

The value of MIC P. aeruginosa (PAO1) measured for the molecule C[C@@H](O)[C@H](NC(=O)c1ccc(C#CC#Cc2ccc(N)cc2)cc1)C(=O)NO [CPD-011] turned out to be A (<1 μg/mL)

The molecule listed as CSCC[C@H](NC(=O)c1ccc(C#CC#Cc2ccc(N)cc2)cc1)C(=O)NO [CPD-028] shows MIC P. aeruginosa (PAO1) equal to E (>100 μg/mL)

Per the record, N=C(N)NCCC[C@H](NC(=O)c1ccc(C#CC#Cc2ccc(N)cc2)cc1)C(=O)NO [CPD-034] has MIC P. aeruginosa (PAO1) of C (11-50 μg/mL)
